# Tested system: A. aegypti AKHR-IA receptor (AKHR-IA) (Aedes aegypti)
# Sequence (A0A2P1A8S4 1-410): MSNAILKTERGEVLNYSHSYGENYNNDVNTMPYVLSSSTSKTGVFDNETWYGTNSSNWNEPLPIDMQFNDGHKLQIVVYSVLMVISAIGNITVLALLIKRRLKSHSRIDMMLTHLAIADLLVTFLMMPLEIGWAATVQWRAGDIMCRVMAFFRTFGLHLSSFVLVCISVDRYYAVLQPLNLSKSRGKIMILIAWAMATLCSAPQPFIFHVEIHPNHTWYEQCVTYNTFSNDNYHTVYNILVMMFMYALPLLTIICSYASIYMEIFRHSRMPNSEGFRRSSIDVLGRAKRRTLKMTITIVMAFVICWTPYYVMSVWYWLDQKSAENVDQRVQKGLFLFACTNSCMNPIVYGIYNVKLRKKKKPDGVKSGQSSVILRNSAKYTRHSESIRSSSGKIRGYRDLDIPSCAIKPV
# Method summary: Calcium bioluminescence (aequorin) reporter assay of heterologously expressed AKHR-IA
# Assay type: cell-based
# Condition notes: AKHR-IA in CHO-K1 aequorin cells; relative to native Aedae-AKH
Non-standard residues stand in square brackets, D forms with d. Residues, ends and D or L forms follow the SMILES beside them. pGlu = O=C1CC[C@@H](C(=O)O)N1
Observable: Fold-reduction in activity relative to Aedae-AKH (fold)

{"columns": ["Molecule", "Value"],
 "data": [
  ["CC(C)[C@H](NC(=O)[C@@H]1CCC(=O)N1)C(=O)N[C@H](C(=O)N[C@@H](Cc1ccccc1)C(=O)N[C@H](C(=O)N1CCC[C@H]1C(=O)N[C@@H](CC(N)=O)C(=O)N[C@@H](Cc1c[nH]c2ccccc12)C(N)=O)[C@@H](C)O)[C@@H](C)O [V^2-PeramCAH-II] ([pGlu]VTFTPNW-NH2)", 68.8],
  ["CC(C)C[C@H](NC(=O)[C@@H]1CCC(=O)N1)C(=O)N[C@H](C(=O)N[C@@H](Cc1ccccc1)C(=O)N[C@H](C(=O)N1CCC[C@H]1C(=O)N[C@@H](CC(N)=O)C(=O)N[C@@H](Cc1c[nH]c2ccccc12)C(N)=O)[C@@H](C)O)[C@@H](C)O [Peram-CAH-II] ([pGlu]LTFTPNW-NH2)", 1.0],
  ["CC(C)C[C@H](NC(=O)[C@@H]1CCC(=O)N1)C(=O)N[C@H](C(=O)N[C@@H](Cc1ccccc1)C(=O)N[C@H](C(=O)N1CCC[C@H]1C(=O)NCC(=O)N[C@@H](Cc1c[nH]c2ccccc12)C(N)=O)[C@@H](C)O)[C@@H](C)O [Tabat-AKH] ([pGlu]LTFTPGW-NH2)", 0.7],
  ["CC(C)C[C@H](NC(=O)[C@@H]1CCC(=O)N1)C(=O)N[C@H](C(=O)N[C@@H](Cc1ccccc1)C(=O)N[C@H](C(=O)N[C@@H](CO)C(=O)N[C@@H](CO)C(=O)N[C@@H](Cc1c[nH]c2ccccc12)C(N)=O)[C@@H](C)O)[C@@H](C)O [Hipes-AKH-I] ([pGlu]LTFTSSW-NH2)", 7.6]
]}
